Origin of measurements: paper PMC7673538

molecular target: human DAT (Homo sapiens); construct: expressed in transfected cells; host or cells: HEK293 (gift of Dr. Hoener, F. Hoffmann-La Roche); format: cell-based; conditions: 1µM; Control = 100%
Sequence (Q01959 whole entry): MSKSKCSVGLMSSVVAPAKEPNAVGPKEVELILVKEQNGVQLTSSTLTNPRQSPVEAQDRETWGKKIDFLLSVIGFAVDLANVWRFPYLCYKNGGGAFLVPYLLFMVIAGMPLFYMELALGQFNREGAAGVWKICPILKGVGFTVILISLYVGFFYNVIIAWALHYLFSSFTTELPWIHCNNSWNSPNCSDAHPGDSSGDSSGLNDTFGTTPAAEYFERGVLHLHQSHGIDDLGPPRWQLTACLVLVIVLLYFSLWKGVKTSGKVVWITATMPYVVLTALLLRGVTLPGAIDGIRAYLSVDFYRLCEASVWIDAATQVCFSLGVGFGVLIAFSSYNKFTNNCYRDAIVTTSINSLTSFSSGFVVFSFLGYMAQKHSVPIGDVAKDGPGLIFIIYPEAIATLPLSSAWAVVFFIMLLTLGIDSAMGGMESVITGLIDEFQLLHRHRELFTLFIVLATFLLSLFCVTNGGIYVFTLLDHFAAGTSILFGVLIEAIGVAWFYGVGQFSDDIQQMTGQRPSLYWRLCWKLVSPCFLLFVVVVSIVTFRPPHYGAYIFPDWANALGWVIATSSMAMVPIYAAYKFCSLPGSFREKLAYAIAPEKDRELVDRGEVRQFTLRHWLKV
Consider the following molecules; for each one, report its DAT, Mean as % (Figure 8B).
Respond numerically; units are % and should not be typed.

Qu. Find the recorded DAT, Mean as % (Figure 8B) belonging to COc1ccc(N(Cc2ccc(F)cc2)C(=O)c2cc[nH]c2)cc1 [Compound 12a] and report it.
Ans. 80

Qu. What does the record list as DAT, Mean as % (Figure 8B) for O=C(c1cc[nH]c1)N(Cc1ccc(F)cc1)c1ccccc1 [Compound 12b] ?
Ans. 103

Qu. Sample O=C(c1ccco1)N(Cc1ccc(C(F)(F)F)cc1)c1ccccc1 [Compound 19d] — what was its DAT, Mean as % (Figure 8B)?
Ans. 76

Qu. Recorded DAT, Mean as % (Figure 8B) for O=C(c1ccco1)N(Cc1ccc(F)cc1)c1ccccc1 [Compound 19b] , please?
Ans. 95

###

system: CV-A24v; assay: microbe, parasite or virus in culture; format: cell-based, coxsackievirus A24v; settings: Coxsackievirus, HeLa R19, read-out: EC50 CV-A24v strain 110392
measure: EC50 (µM)
Write the answer as a number in µM, unit excluded.

Qu. Please give the measured EC50 for this compound: O=C(c1ccco1)N(Cc1ccc(F)cc1)c1ccccc1 [Compound 19b]
Ans. 4.35

Qu. Give the measured EC50 of COc1ccc(N(Cc2ccc(F)cc2)C(=O)c2cc[nH]c2)cc1 [Compound 12a] .
Ans. 2.32

Qu. Would you mind telling me what EC50 value was observed for O=C(c1ccco1)N(Cc1ccc(C(F)(F)F)cc1)c1ccccc1 [Compound 19d] ?
Ans. 19.1

###

assay: in vitro; details: human, CC50 Hap1 Average
measure: CC50 (µM)
Just the number please, in µM, no unit attached.

Qu. I have this compound here, CC(C)c1ccc(CN(C(=O)c2ccco2)c2ccccc2)cc1 [Compound 19h] , and I need its recorded CC50.
Ans. 48.7

Qu. I would be grateful if you could share the reported CC50 for O=C(c1ccco1)N(Cc1ccc(S(F)(F)(F)(F)F)cc1)c1ccccc1 [Compound 19f] .
Ans. 62.5

Qu. For COc1ccc(N(Cc2ccc(C(F)(F)F)cc2)C(=O)c2ccco2)cc1 [Compound 19e] , what is its reported CC50?
Ans. 54.9

Qu. I would be grateful if you could share the reported CC50 for O=C(c1ccco1)N(Cc1ccc(C(F)(F)F)cc1)c1ccccc1 [Compound 19d] .
Ans. 97.8

Qu. Which measured CC50 value corresponds to "COc1ccc(N(Cc2ccc(F)cc2)C(=O)c2cccs2)cc1" ?
Ans. 53.9

Qu. Which value of CC50 has been reported for "COc1ccc(N(Cc2ccc(F)cc2)C(=O)c2ccco2)cc1" in the records?
Ans. 45.6

###

assay: in vitro; details: monkey, Exp 2 CC50 BGM
measure: CC50 (µM)
Write it as a number; the unit µM goes unstated.

Qu. Fill in: CC50 of O=C(c1ccco1)N(Cc1ccccc1)c1ccc(C(F)(F)F)cc1 [Compound 19i] is ___
Ans. 55.5

Qu. Entry COc1ccc(N(Cc2ccc(F)cc2)C(=O)c2ccco2)cc1 [Compound 1] has what CC50?
Ans. 50.3

Qu. Which measured CC50 value corresponds to COc1ccc(N(Cc2ccc(F)cc2)C(=O)c2ccc[nH]2)cc1 [Compound 5c] ?
Ans. 54

Qu. I'd like to know its CC50. The molecule in question is O=C(c1ccco1)N(Cc1ccc(S(F)(F)(F)(F)F)cc1)c1ccccc1 [Compound 19f]
Ans. 33.3
